# Target of assay: KCNQ2/3 channels (Homo sapiens, UniProt O43525+O43526)
# Construct: expressed in transfected cells
# Sequence (O43526 whole entry): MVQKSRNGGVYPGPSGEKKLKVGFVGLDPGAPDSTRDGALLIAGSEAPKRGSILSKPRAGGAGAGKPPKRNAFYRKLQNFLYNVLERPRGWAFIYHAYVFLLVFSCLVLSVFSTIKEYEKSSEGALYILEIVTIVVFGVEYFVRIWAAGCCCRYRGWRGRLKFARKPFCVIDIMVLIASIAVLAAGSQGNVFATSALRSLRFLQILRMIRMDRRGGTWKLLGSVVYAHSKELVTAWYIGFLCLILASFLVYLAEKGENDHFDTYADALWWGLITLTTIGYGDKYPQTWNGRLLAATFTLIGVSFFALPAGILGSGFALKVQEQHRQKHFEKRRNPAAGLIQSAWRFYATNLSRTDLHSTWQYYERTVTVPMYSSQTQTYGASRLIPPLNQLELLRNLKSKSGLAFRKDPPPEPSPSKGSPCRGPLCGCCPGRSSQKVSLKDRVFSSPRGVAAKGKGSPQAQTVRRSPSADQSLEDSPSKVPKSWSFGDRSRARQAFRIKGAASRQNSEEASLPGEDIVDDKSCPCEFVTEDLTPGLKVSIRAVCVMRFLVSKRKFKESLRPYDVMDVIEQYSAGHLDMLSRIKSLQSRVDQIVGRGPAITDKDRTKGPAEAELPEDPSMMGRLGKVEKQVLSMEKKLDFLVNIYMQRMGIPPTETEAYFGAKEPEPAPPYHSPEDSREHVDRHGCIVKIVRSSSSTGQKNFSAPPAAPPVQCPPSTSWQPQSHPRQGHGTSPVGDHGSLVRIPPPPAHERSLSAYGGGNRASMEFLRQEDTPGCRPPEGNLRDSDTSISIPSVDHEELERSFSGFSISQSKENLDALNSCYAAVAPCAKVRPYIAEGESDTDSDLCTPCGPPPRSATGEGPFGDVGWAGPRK
# Sequence (O43525 whole entry): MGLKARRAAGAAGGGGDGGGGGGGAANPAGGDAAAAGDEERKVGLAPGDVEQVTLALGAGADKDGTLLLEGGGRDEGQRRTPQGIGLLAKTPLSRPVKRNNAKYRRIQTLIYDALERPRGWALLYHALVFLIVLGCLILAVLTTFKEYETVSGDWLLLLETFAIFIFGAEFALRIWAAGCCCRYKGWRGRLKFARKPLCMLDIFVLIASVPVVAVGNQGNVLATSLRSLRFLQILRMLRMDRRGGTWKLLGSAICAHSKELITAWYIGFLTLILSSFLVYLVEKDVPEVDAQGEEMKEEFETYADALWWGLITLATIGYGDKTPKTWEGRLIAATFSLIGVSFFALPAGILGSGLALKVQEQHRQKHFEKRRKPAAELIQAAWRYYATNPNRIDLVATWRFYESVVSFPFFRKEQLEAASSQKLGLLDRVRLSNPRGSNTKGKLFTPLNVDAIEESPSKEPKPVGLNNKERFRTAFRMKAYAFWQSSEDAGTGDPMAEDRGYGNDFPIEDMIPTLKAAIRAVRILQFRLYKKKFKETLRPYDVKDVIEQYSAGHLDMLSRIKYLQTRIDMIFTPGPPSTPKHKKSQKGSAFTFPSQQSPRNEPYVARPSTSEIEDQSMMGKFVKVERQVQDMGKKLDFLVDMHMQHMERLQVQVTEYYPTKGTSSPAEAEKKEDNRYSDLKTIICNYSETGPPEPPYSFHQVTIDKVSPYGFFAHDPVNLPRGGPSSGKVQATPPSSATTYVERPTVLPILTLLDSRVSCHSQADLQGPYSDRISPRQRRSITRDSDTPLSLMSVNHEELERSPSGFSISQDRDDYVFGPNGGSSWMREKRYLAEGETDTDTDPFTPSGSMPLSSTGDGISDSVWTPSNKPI
# Measurement protocol: Fluorescence assay using a voltage sensitive dye (fluorimetry)
# Format: cell-based
# Assay conditions: CHO-K1, plateau effect relative to saturated retigabine (50 μM) = 100%; CHO-K1 cells expressing KCNQ2/3; negative values = antagonistic; read-out: Fluorimetry % efficacy (retigabine = 100%)
Readout name: Emax

Consider the following illustrative entries.
Compound	Emax
CCSc1nc(N2CCOC[C@H]2C)cc(C)c1C(=O)NCc1cccc(F)c1	188%
CCSc1nc(N2CCOCC2)cc(C)c1C(=O)NCc1cccc(C(F)(F)F)c1	128%
CCSc1nc(N2CCN(C)C(=O)C2)cc(C)c1C(=O)NCc1cccc(F)c1	98%

Dear colleague, could you please provide Emax for the compounds listed below?
1. CCSc1nc(N2CCOC(C(F)(F)F)C2)cc(C)c1C(=O)NCc1cccc(F)c1 (stereo not drawn)
2. CCSc1nc(N2CCOCC2)cc(C)c1C(=O)NCc1ccc2c(c1)COC2
3. Cc1cc(N2CCOC[C@H]2C)nc(C(C)C)c1C(=O)NCc1ccc(F)cc1
4. CCSc1nc(N2CC(O)C2)cc(C)c1C(=O)NCc1cccc(F)c1
5. CCSc1nc(N2CCOCC2)cc(C)c1C(=O)NCCc1ccccc1
6. Cc1cc(N2CCOCC2)nc(N(C)C)c1C(=O)NCc1ccc(F)cc1
7. CCSc1nc(N2CCOCC2)cc(C)c1C(=O)NCC1CCCC1
8. CCSc1nc(N2CCOCC2)cc(C)c1C(=O)NCc1ccc([N+](=O)[O-])cc1

127%
129%
197%
44%
103%
205%
189%
109%

Dear colleague, could you please provide Emax for the compounds listed below?
1. CCCCCNC(=O)c1c(C)cc(N2CCOCC2)nc1SCC
2. CCSc1nc(N2CCOCC2)cc(C)c1C(=O)NCC(C)(C)C
3. COC[C@@H]1CN(c2cc(C)c(C(=O)NCc3ccc(Cl)cc3)c(C(C)C)n2)CCO1
4. CCSc1nc(N2CCOCC2)cc(C)c1C(=O)NCCCC(C)(C)OC
5. CCSc1nc(N2CCOCC2)cc(C)c1C(=O)NCCC(O)c1ccccc1 (stereo not drawn)
6. CCSc1nc(N2CCOCC2)cc(C)c1C(=O)NCc1cccc(F)c1
7. CCSc1nc(N2CCOCC2)cc(C)c1C(=O)NCC(O)Cc1ccccc1 (stereo not drawn)
8. CCSc1nc(N2CCOCC2)cc(C)c1C(=O)NCCC(O)C(C)C (stereo not drawn)

1: 163%; 2: 119%; 3: 126%; 4: 193%; 5: 165%; 6: 171%; 7: 129%; 8: 198%

Dear colleague, could you please provide Emax for the compounds listed below?
1. CCN(C)c1nc(N2CCOCC2)cc(C)c1C(=O)NCc1cccc(F)c1
2. CCSc1nc(N2CCOCC2)cc(C)c1C(=O)NCc1cccc(COC)c1
3. CCSc1nc(N2CC3CCC(C2)O3)cc(C)c1C(=O)NCc1cccc(F)c1

238%
137%
153%

Dear colleague, could you please provide Emax for the compounds listed below?
1. CCSc1nc(N2CCOCC2)cc(C)c1C(=O)NCCOC
2. Cc1cc(N2CCOC[C@H]2C)nc(C(C)C)c1C(=O)NCCCC(C)(C)C
3. Cc1cc(N2CCOC[C@H]2C)nc(N(C)C)c1C(=O)NCCCC(C)(C)C
4. CCSc1nc(N2CCOCC2CCOC)cc(C)c1C(=O)NCc1cccc(F)c1 (stereo not drawn)
5. CSc1nc(N2CCOCC2)cc(C)c1C(=O)NCc1ccc(F)c(F)c1
6. CCSc1nc(N2CCOCC2)cc(C)c1C(=O)NCc1ccc(COC)c(F)c1
7. Cc1cc(N2CCOCC2)nc(C2CC2)c1C(=O)NCc1ccc(F)cc1

["40%", "238%", "221%", "152%", "158%", "153%", "144%"]
